Source: ChEMBL document CHEMBL3045430

# Test system: Mythimna separata
# ASSAY OVERVIEW: In vivo insecticidal activity against pre-third-instar larval stage of Mythimna separata (Oriental armyworm) in corn leaves assessed as corrected mortality rate at 1 mg/ml treated for 3 secs before larval infestation on corn leaves measured after 10 days by leaf-dipping method
# Format: functional
# EXPERIMENTAL SETUP: 240 h
In this section, each of the compounds is paired with its reported mortality at 1000 µg/mL.
OBSERVABLE: mortality at 1000 µg/mL (%)

[[record]]
smiles_repr = "COc1cc([C@@H]2c3cc4c(cc3[C@H](OCc3ccc(OS(=O)(=O)c5ccc(Cl)cc5)cc3)[C@H]3COC(=O)[C@]23Cl)OCO4)cc(OC)c1OC"
observable = "mortality at 1000 µg/mL"
observed_value = 28.6

[[record]]
smiles_repr = "COc1cc([C@@H]2c3cc4c(cc3[C@H](OCc3ccccc3OS(=O)(=O)c3ccccc3)[C@H]3COC(=O)[C@]23Cl)OCO4)cc(OC)c1OC"
observable = "mortality at 1000 µg/mL"
observed_value = 7.1

[[record]]
smiles_repr = "COc1cc([C@@H]2c3cc4c(cc3[C@H](OCc3ccccc3)[C@H]3COC(=O)[C@]23Cl)OCO4)cc(OC)c1OC"
observable = "mortality at 1000 µg/mL"
observed_value = 10.7

[[record]]
smiles_repr = "COc1cc([C@@H]2c3cc4c(cc3[C@H](OCc3ccc(OS(=O)(=O)c5ccc(Cl)c([N+](=O)[O-])c5)cc3)[C@H]3COC(=O)[C@]23Cl)OCO4)cc(OC)c1OC"
observable = "mortality at 1000 µg/mL"
observed_value = 17.9

[[record]]
smiles_repr = "COc1ccc(S(=O)(=O)Oc2ccc(CO[C@H]3c4cc5c(cc4[C@@H](c4cc(OC)c(OC)c(OC)c4)[C@@]4(Cl)C(=O)OC[C@H]34)OCO5)cc2)cc1"
observable = "mortality at 1000 µg/mL"
observed_value = 21.4

[[record]]
smiles_repr = "COc1cc([C@@H]2c3cc4c(cc3[C@H](OCc3ccc(OS(=O)(=O)c5ccc(C)cc5)cc3)[C@H]3COC(=O)[C@]23Cl)OCO4)cc(OC)c1OC"
observable = "mortality at 1000 µg/mL"
observed_value = 17.9


* * *

# System: Mythimna separata
# ASSAY OVERVIEW: In vivo insecticidal activity against pre-third-instar larval stage of Mythimna separata (Oriental armyworm) in corn leaves assessed as corrected mortality rate at 1 mg/ml treated for 3 secs before larval infestation on corn leaves measured after 10 days by leaf-dipping method
# Assay type: functional
# EXPERIMENTAL SETUP: 240 h
OBSERVABLE: mortality at 1000 µg/mL (%)

[[record]]
compound = "CCc1ccc(S(=O)(=O)Oc2ccc(CO[C@H]3c4cc5c(cc4[C@@H](c4cc(OC)c(OC)c(OC)c4)[C@@]4(Cl)C(=O)OC[C@H]34)OCO5)cc2)cc1"
units = "%"
observed_value = 14.3

[[record]]
compound = "COc1ccc(S(=O)(=O)Oc2ccccc2CO[C@H]2c3cc4c(cc3[C@@H](c3cc(OC)c(OC)c(OC)c3)[C@@]3(Cl)C(=O)OC[C@H]23)OCO4)cc1"
units = "%"
observed_value = 17.9

[[record]]
compound = "COc1cc([C@@H]2c3cc4c(cc3[C@H](O)[C@H]3COC(=O)[C@H]23)OCO4)cc(OC)c1OC [PODOFILOX]"
units = "%"
observed_value = 17.9

[[record]]
compound = "COc1cc([C@@H]2c3cc4c(cc3[C@H](OCc3ccccc3OS(=O)(=O)c3ccc(Cl)cc3)[C@H]3COC(=O)[C@]23Cl)OCO4)cc(OC)c1OC"
units = "%"
observed_value = 7.1

[[record]]
compound = "CCc1ccc(S(=O)(=O)Oc2ccccc2CO[C@H]2c3cc4c(cc3[C@@H](c3cc(OC)c(OC)c(OC)c3)[C@@]3(Cl)C(=O)OC[C@H]23)OCO4)cc1"
units = "%"
observed_value = 35.7

[[record]]
compound = "COc1cc([C@@H]2c3cc4c(cc3[C@H](OCc3ccc(OS(=O)(=O)c5cccc([N+](=O)[O-])c5)cc3)[C@H]3COC(=O)[C@]23Cl)OCO4)cc(OC)c1OC"
units = "%"
observed_value = 14.3

[[record]]
compound = "COc1cc([C@@H]2c3cc4c(cc3[C@H](OCc3ccccc3OS(=O)(=O)c3cccc([N+](=O)[O-])c3)[C@H]3COC(=O)[C@]23Cl)OCO4)cc(OC)c1OC"
units = "%"
observed_value = 10.7

[[record]]
compound = "COc1cc([C@@H]2c3cc4c(cc3[C@H](OCc3ccc(OS(=O)(=O)c5ccccc5)cc3)[C@H]3COC(=O)[C@]23Cl)OCO4)cc(OC)c1OC"
units = "%"
observed_value = 14.3

[[record]]
compound = "COc1cc([C@@H]2c3cc4c(cc3[C@H](O)[C@H]3COC(=O)[C@]23Cl)OCO4)cc(OC)c1OC [2BETA-CHLOROPODOPHYLLOTOXIN]"
units = "%"
observed_value = 14.3


* * *

# System: Mythimna separata
# ASSAY OVERVIEW: In vivo insecticidal activity against pre-third-instar larval stage of Mythimna separata (Oriental armyworm) in corn leaves assessed as corrected mortality rate at 1 mg/ml treated for 3 secs before larval infestation on corn leaves measured after 10 days by leaf-dipping method
# Type: functional
# EXPERIMENTAL SETUP: 240 h
OBSERVABLE: mortality at 1000 µg/mL (%)

[[record]]
smiles_repr = "CC(=O)O[C@@H]1C[C@H](O)[C@@]23CO[C@@H](O)[C@]1(C)[C@@H]2C[C@@H](O)[C@]1(C)[C@@H]3C(=O)[C@H](OC(C)=O)[C@@]2(C)[C@H](c3ccoc3)C[C@H]3O[C@]321"
observed_value = 17.9

[[record]]
smiles_repr = "COc1cc([C@@H]2c3cc4c(cc3[C@H](OCc3ccccc3OS(=O)(=O)c3ccc(C)cc3)[C@H]3COC(=O)[C@]23Cl)OCO4)cc(OC)c1OC"
observed_value = 21.4

[[record]]
smiles_repr = "COc1cc([C@@H]2c3cc4c(cc3[C@H](OCc3ccccc3OS(=O)(=O)c3ccc(Cl)c([N+](=O)[O-])c3)[C@H]3COC(=O)[C@]23Cl)OCO4)cc(OC)c1OC"
observed_value = 25

